- tested_on: Ras and Rab interactor 1/Tyrosine-protein kinase ABL1 (Homo sapiens, UniProt P00519+Q13671)
- Sequence (P00519 whole entry): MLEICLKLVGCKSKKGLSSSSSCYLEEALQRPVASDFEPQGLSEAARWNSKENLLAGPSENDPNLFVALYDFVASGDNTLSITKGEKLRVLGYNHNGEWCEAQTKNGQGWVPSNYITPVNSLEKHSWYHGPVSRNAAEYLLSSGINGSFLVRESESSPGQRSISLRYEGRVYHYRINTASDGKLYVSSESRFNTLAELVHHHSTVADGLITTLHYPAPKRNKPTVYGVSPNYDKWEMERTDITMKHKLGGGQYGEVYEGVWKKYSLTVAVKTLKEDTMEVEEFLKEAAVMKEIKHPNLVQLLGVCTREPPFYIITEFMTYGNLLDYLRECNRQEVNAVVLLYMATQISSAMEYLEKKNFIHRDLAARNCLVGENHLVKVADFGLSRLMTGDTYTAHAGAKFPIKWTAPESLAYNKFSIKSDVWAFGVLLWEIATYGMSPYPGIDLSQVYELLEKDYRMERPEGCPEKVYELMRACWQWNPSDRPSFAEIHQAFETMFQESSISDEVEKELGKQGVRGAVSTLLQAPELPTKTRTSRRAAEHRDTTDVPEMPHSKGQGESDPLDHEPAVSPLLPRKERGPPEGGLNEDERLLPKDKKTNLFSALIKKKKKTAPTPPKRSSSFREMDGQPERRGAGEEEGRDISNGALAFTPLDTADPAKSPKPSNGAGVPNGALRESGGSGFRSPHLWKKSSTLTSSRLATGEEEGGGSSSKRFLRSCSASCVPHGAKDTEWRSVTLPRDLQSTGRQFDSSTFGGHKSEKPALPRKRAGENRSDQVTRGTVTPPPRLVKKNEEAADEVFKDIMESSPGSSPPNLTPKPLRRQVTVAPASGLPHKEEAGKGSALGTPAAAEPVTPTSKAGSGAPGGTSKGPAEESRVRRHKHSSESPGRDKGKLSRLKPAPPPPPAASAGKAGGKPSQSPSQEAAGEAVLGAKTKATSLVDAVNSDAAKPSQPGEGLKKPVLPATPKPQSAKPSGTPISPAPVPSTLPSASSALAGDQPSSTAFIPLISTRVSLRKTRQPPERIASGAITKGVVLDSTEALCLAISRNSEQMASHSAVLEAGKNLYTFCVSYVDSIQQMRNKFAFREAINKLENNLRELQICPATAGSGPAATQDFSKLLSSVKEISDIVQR
- Sequence (Q13671 whole entry): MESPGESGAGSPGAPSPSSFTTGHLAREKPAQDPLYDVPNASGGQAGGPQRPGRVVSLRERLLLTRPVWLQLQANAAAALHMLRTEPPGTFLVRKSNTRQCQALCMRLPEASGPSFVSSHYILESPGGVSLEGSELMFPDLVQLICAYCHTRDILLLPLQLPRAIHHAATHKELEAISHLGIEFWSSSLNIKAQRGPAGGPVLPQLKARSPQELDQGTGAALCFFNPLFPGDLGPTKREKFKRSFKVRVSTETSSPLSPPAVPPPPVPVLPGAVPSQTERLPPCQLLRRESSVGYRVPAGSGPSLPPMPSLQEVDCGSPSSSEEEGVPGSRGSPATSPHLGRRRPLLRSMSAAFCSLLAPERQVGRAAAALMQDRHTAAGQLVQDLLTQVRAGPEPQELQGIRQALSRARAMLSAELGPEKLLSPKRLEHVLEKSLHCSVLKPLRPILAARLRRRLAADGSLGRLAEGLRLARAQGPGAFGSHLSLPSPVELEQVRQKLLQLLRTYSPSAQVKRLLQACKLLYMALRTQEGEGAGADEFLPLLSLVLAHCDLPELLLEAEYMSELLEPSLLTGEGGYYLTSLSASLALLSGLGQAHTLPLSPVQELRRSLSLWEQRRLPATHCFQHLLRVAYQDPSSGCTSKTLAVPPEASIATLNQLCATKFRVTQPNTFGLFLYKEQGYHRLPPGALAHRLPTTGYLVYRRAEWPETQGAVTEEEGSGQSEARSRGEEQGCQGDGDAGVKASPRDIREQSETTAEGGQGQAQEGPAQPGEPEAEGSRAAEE
- Format: functional
Activity calls are given as the source filed them.
The reply should name one outcome from Y for active, N for inactive

Sample answers from the record:
compound | assigned_category
COc1ccc2nc(NC(=O)CCc3nc(C4=CCN(C)CC4)no3)sc2c1 | Y
O=C1N(c2cccc(Cl)c2)C(c2ccc(Cl)cc2)N2CCCN12 (stereo not given) | N
O=C1N(c2cccc(Cl)c2)C(c2ccccc2)N2CCCN12 (stereo not given) | N
COC(=O)c1c(C)nc(C)c2c(=O)oc3ccccc3c12 | N

Here is the next item to consider.
Enquiry: Hey, what did the test say about "CN(CCc1ccccc1)C(=O)c1ccc(NC(=O)Cc2ccc(NC(=O)C3CCN(C(=O)c4ccccc4)CC3)cc2)cc1" ?
Return: Y

====

# maps each entry to its IC50
- tested_on: Rac GTPase-activating protein 1 (Homo sapiens, UniProt Q9H0H5)
- Sequence (Q9H0H5 whole entry): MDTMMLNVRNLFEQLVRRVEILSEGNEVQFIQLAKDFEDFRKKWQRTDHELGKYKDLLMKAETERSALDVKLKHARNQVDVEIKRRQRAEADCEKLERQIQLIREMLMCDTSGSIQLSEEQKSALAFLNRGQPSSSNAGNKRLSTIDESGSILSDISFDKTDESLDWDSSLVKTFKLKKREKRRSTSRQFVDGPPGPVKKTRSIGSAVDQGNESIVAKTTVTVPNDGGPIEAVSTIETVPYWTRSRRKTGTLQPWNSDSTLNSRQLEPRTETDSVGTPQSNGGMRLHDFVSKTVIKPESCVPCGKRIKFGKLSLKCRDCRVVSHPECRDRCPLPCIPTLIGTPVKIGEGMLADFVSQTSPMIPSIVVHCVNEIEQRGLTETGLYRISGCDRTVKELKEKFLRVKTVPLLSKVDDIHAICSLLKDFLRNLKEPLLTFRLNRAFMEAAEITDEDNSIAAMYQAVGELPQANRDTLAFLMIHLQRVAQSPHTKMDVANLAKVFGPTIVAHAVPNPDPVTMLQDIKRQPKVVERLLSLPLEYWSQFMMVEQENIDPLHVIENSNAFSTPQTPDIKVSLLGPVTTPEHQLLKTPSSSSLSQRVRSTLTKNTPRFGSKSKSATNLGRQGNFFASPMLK
- assay_explanation: MgcRacGAP GTPase-activating activity inhibitors, confirmation, biochemical, ADP Hunter fluorescence, primary and confirmatory (AID 624330)
- Assay type: functional
Active and inactive are the calls of the source.

molecule | tested_on | reported_result
COc1ccc(N2CCC(CN=C(S)Nc3cc(C)cc(C)c3)C2)cc1 (stereo unspecified) | Rac GTPase-activating protein 1 (Homo sapiens, UniProt Q9H0H5) | 108 µM (active)
COc1ccc2oc(=O)c(C(=O)Oc3ccc(NC(C)=O)cc3)cc2c1 | Rac GTPase-activating protein 1 (Homo sapiens, UniProt Q9H0H5) | 24.5 µM (active)
O=C(CNCc1ccccn1)N1CCc2ccccc2C1 | Rac GTPase-activating protein 1 (Homo sapiens, UniProt Q9H0H5) | 177 µM (active)
COc1ccc(/C=N/Nc2cc(C)nc3c(C)cccc23)cc1 | Rac GTPase-activating protein 1 (Homo sapiens, UniProt Q9H0H5) | 68.9 µM (active)
COc1cc(/C=N/NC(=O)c2cnccn2)ccc1O | Rac GTPase-activating protein 1 (Homo sapiens, UniProt Q9H0H5) | 20.3 µM (active)
COc1ccc(C)cc1NCc1cccc(OC)c1OC | Rac GTPase-activating protein 1 (Homo sapiens, UniProt Q9H0H5) | 41.7 µM (active)

Enquiry: What value of IC50 has been recorded for this entry: "COc1ccc(N)cc1NC(=O)CN1CCOCC1"
Return: 118 µM (active)

Enquiry: Please give the result for "COc1ccccc1CNCC(=O)NCc1ccc(C)cc1" too.
Return: 163 µM (active)

====

- tested_on: E3 ubiquitin-protein ligase XIAP (Homo sapiens, UniProt P98170)
- Sequence (P98170 whole entry): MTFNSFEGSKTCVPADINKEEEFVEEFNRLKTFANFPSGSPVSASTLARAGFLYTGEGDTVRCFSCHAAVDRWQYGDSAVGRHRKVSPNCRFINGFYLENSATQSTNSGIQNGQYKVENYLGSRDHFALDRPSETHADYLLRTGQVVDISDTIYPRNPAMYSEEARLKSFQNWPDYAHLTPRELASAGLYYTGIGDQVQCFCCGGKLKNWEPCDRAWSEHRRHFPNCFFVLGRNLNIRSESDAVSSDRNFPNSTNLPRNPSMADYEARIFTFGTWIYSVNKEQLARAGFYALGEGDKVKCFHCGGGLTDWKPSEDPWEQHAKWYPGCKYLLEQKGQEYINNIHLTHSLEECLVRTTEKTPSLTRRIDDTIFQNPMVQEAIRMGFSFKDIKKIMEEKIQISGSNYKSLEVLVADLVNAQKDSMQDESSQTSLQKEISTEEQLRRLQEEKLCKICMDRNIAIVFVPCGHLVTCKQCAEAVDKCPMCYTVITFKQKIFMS
- assay_explanation: Counter Screen using XIAP-Bir3 for Chemical Antagonists of Bir1/2 domains of IAP-family anti-apoptotic proteins. [Related pubchem assays (depositor defined):AID1018, AID1449, AID1514, AID1638, AID1749, AID1750, AID488957, AID488963]
Calls of active or inactive are those of the source.
endpoint_label: IC50

Field: example entries. Status: answers known.
smiles_str | IC50
COc1ccc(C(N)=NOC(=O)Cc2ccc(C)cc2)cc1 | > 100 µM (inactive)
CN(C)CCCn1c(-c2ccccc2)nc(=S)c2c1CCCC2 | > 100 µM (inactive)
Cc1cc(C)cc(NC(=O)Nc2ccc3c(c2)N(C)C(=O)CS3)c1 | > 100 µM (inactive)

Let's switch to this compound now.
Enquiry: What value of IC50 has been recorded for this entry: "Cc1cc(Cl)ccc1OCC(=O)Nc1ccccc1CO"
Return: > 100 µM (inactive)

====

# maps each entry to its IC50
- tested_on: Rac GTPase-activating protein 1 (Homo sapiens)
- assay_explanation: MgcRacGAP GTPase-activating activity inhibitors, confirmation, biochemical, ADP Hunter fluorescence, primary and confirmatory (AID 624330)
- Assay type: functional
Activity calls are given as the source filed them.

Field: example entries. Status: answers known.
smiles_str | IC50
Cc1ccc(-c2ccc(/C=C3\C(=O)ON=C3c3ccccc3)o2)c([N+](=O)[O-])c1 | 67.2 µM (active)
Nn1c(=S)[nH]c2sc3c(c2c1=O)CCCC3 | 74.3 µM (active)
COc1ncnc2c1ncn2CCCNc1ccc(C)c(C)c1 | 102 µM (active)

Enquiry: What value of IC50 has been recorded for this entry: "CCN(Cc1ccncc1)Cc1ccc(OC)cc1OC"
Return: 117 µM (active)

Enquiry: Please give the result for "Nc1ccc2[nH]c(S)nc2c1" too.
Return: 19.4 µM (active)

Enquiry: Please give the result for "OCCN(/C=N/C1=NN(c2cccc(C(F)(F)F)c2)CC1)CCO" too.
Return: 30.9 µM (active)

====

# maps each entry to its EC50
- tested_on: Heat shock factor protein 1 (Mus musculus)
- Sequence (P38532 whole entry): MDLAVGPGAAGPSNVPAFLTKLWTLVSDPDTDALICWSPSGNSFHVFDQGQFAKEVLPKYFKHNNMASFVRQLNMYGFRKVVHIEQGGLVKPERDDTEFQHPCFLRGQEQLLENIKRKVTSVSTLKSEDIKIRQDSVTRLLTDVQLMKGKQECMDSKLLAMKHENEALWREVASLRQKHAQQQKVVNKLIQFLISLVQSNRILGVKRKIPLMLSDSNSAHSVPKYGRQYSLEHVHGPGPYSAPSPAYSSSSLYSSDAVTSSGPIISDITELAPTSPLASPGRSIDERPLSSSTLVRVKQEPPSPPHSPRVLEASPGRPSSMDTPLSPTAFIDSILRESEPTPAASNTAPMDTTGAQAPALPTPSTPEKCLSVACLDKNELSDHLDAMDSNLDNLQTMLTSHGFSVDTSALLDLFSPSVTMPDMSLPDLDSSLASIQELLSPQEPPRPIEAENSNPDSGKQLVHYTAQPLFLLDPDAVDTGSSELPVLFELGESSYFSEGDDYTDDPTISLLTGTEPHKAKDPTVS
- assay_explanation: inhibition of MG132-induced HSE-luciferase signal, confirmation, cell-based, NIH3T3, luminescence, dose retest (AID 2382);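 note: NIH3T3 fibroblasts with HSF1-driven luciferase reporter stressed by proteasome inhibitor MG132; luminescence from HSF1-driven luciferase expression after 8 hours of MG132 stress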
- Assay type: functional
Calls of active or inactive are those of the source.

compound | tested_on | reported_result
COc1ccccc1CN1CC(C(=O)NCCN2CCNC2=O)CCC1=O (configuration not stated) | Heat shock factor protein 1 (Mus musculus) | 9.48 µM (active)

Enquiry: What value of EC50 has been recorded for this entry: Cc1ccc(SCc2n[nH]c3c2C(c2ccc(C)o2)C(C#N)=C(N)O3)cc1 (configuration not stated)
Return: > 195 µM (not active)

Enquiry: Please give the result for "CN(CC(=O)Nc1cccc(F)c1)CC(=O)Nc1cccc(S(N)(=O)=O)c1" too.
Return: > 195 µM (not active)

Enquiry: Please give the result for "CCCCOc1ccc(CC(=O)NO)cc1" too.
Return: > 195 µM (not active)

Enquiry: Please give the result for "CC(C)OC(=O)Cn1c(=O)oc2ccccc21" too.
Return: > 195 µM (not active)

====

- tested_on: Voltage-gated N-type calcium channel alpha-1B subunit/Amyloid beta A4 precursor protein-binding family A member 1 (Homo sapiens, UniProt Q00975+Q02410)
- Format: protein assay
Active and inactive are the calls of the source.
endpoint_label: IC50

Enquiry: What value of IC50 has been recorded for this entry: O=C(CCN1C(=O)/C(=C/c2ccccc2F)SC1=S)NC1C=CS(=O)(=O)C1 (stereo not drawn)
Return: 2.87 µM (active)

Enquiry: Please give the result for "O=C(CSc1nc2ccccc2n1CCc1ccccc1)c1ccc(O)c(O)c1" too.
Return: 9.4 µM (active)

Enquiry: Please give the result for "Cc1cc(C)n(Cc2ccc(C(=O)N/N=C/c3ccc(-c4ccc([N+](=O)[O-])cc4)o3)o2)n1" too.
Return: 20.2 µM (active)

Enquiry: Please give the result for "O=C1C=CC(=O)N1c1ccc(N2CCCCC2)cc1" too.
Return: 9.34 µM (active)

Enquiry: Please give the result for COC/C=C/C1=CC2=CC(=O)C(C)(OC(=O)CCC(=O)OC)C(=O)C2=CO1 (stereo not drawn) too.
Return: > 56.8 µM (not active)

====

# maps each entry to its IC50
- tested_on: Prothrombin (Bos taurus, UniProt P00735)
- assay_explanation: thrombin inhibition, dose response, biochemical, fluorescence polarization, uHTS hits (AID 602369)
- Format: functional
Activity calls are given as the source filed them.

compound | IC50
Cc1ccc(NC(=O)C2CCN(S(=O)(=O)c3ccc4c(c3)NC(=O)C(C)S4)CC2)cc1Cl (centres undefined) | 46 µM (active)
Cc1ccc(CSCC(=O)N/N=C/c2ccc(OCC(=O)Nc3ccc(C)cc3)cc2)cc1 | 96.9 µM (active)
COc1ccccc1NC(=O)CCc1nc2sc3c(c2c(=O)[nH]1)CCCC3 | 47.9 µM (active)

Let's switch to this compound now.
Enquiry: What value of IC50 has been recorded for this entry: "CCOC(=O)NC(=O)/C(C#N)=C/c1ccc(N(C)C)cc1"
Return: 25.6 µM (active)

====

- tested_on: UniProt Q92731
- Sequence (Q92731 whole entry): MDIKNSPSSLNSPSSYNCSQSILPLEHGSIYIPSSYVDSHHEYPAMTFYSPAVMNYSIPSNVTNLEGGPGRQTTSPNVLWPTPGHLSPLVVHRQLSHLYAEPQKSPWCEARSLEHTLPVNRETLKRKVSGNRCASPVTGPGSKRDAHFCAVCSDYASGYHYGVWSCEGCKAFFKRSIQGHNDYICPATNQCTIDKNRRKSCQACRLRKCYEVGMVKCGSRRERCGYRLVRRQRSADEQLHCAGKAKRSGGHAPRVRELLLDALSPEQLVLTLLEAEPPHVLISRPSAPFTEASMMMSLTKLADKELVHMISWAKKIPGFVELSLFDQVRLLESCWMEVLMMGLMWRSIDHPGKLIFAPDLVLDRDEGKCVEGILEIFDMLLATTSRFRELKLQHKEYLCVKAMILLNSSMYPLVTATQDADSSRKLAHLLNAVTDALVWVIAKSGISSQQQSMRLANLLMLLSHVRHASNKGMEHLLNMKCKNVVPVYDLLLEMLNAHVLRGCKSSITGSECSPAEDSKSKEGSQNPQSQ
Active and inactive are the calls of the source.
# maps each entry to its IC50

Field: example entries. Status: answers known.
molecule | IC50
Cc1cccc(-n2c(SCc3cc(=O)n4c(C)cccc4n3)nc3nncc-3c2O)c1 | > 50 µM (not active)
O=C(CCc1ccccc1)Nc1ccc(N2CCOCC2)cc1 | > 50 µM (not active)
Cc1ccc2c(c1)c(=O)c1c3n2CCN(C(=O)CCl)C3CC1 (centres undefined) | 8.75 µM (active)

Let's switch to this molecule now.
Enquiry: Given the entry "CCOC(=O)Cc1nn(C)c(=O)c2ccccc12" , what IC50 was observed with UniProt Q92731?
Return: > 50 µM (not active)

====

- assay_explanation: HEp-2 cell cytotoxicity, dose response, cytotoxicity control for RSV inhibitor project, HTS (AID 2410)
- Format: functional
- study_conditions: human respiratory syncytial virus
Calls of active or inactive are those of the source.
endpoint_label: CC50

Field: example entries. Status: answers known.
compound | CC50
Cc1ccc(-c2ccc(/C=C3\C(=O)ON=C3c3ccccc3)o2)c([N+](=O)[O-])c1 | 9.29 µM (active)
COc1cc(N2CCCC2)c(OC)cc1/C=C(/C#N)c1cccc(Br)c1 | > 50 µM (active)
CC1CCCCN1S(=O)(=O)c1ccc(NC(=O)c2cccs2)cc1 (stereo unspecified) | 25.1 µM (active)

Enquiry: What value of CC50 has been recorded for this entry: "O=C(Nc1ccc2nn(-c3ccc(F)cc3)nc2c1)c1cccnc1"
Return: > 50 µM (active)

Enquiry: Please give the result for "COc1ccc(S(=O)(=O)N2CCN(c3ccc4nnc(-c5ccc(F)cc5)n4n3)CC2)cc1" too.
Return: > 50 µM (active)

Enquiry: Please give the result for "O=C(NCc1nc2ccccc2[nH]1)C1=C[C@H](c2csc3ccccc23)C[C@H](OCc2ccc(CO)cc2)O1" too.
Return: 41.1 µM (active)
